Target: SOS1 binding to KRAS G12C (Homo sapiens, UniProt Q07889)
Construct: consisting of amino acid residues 564 to 1049 which are the catalytic domain; MSC-11-538 (KRAS G12C)
Sequence (Q07889 564-1049, stated change not applied): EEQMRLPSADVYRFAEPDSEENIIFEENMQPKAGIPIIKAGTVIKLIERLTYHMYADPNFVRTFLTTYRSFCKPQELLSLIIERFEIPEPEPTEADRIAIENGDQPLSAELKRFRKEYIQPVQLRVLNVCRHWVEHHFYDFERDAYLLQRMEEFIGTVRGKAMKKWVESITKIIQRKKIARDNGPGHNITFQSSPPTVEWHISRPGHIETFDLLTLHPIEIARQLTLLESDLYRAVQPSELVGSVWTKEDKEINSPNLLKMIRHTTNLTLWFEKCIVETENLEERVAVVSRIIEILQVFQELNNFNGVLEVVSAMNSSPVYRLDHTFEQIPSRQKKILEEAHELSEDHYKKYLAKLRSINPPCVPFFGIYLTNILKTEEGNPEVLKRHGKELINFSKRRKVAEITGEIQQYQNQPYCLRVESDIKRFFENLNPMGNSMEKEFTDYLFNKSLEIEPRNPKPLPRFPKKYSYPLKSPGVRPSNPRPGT
Experiment: SOS1 GTP substitution inhibition test (HTRF/TR-FRET, KRAS G12C-SOS1 binding inhibitory ability)
Details: HTRF, GST-KRAS G12C (2-169), SOS1-Strep (564-1049), 1.6, 8, 40, 200, 1,000 nM
As shown below, each of these compounds has a reported IC50 value.

COMPOUND | IC50
COc1cc2c(N[C@H](C)c3cc(N)cc(C(F)(F)F)c3)nc(C)nc2cc1OCC1COC1 | > 100 nM

Input: Could you tell me which IC50 is on file for COc1cc2c(N[C@H](C)c3cc(N)cc(C(F)(F)F)c3)nc(C)nc2cc1CN1CCOCC1 ?
Output: > 100 nM

Input: One more compound: COc1cc2c(N[C@H](C)c3cc(N)cc(C(F)F)c3)nc(C)nc2cc1C(=O)N1CCOCC1
Output: ≤ 50 nM

Input: One more compound: COCCNc1cc2c(N[C@H](C)c3cc(N)cc(C(F)(F)F)c3)nc(C)nc2cc1C(=O)N1CCOCC1
Output: 50 to 100 nM

Input: One more compound: COc1cc2c(N[C@H](C)c3cc(N)cc(C(F)F)c3F)nc(C)nc2cc1OC1CCOCC1
Output: > 100 nM

Input: One more compound: Cc1nc(N[C@H](C)c2cc(N)cc(C(F)(F)F)c2)c2cc(N(C)C)c(C(=O)N3CCOCC3)cc2n1
Output: 50 to 100 nM

Input: One more compound: COc1cc2c(N[C@H](C)c3cc(C)cc(N)c3)nc(C)nc2cc1C(=O)N1CCOCC1
Output: 50 to 100 nM
